Data origin, for the record: the supplement of paper PMC10307832

- Tested on: NCI-H727
- ASSAY_TEXT: relative viability (nuclei count vs DMSO), 5 days (fraction); higher = more cells survive
- CONDITION_INFO: first compound 0.03162 µM
Lab note: compare relative viability with 0.4, writing yes if less and no if equal or more.

Challenge: Threshold test, relative viability < 0.4: CCN(CC)CCCCNc1ncc2cc(-c3cc(OC)cc(OC)c3)c(NC(=O)NC(C)(C)C)nc2n1 + C[C@]1(O)C[C@@H](c2nc(-c3ccc4ccc(-c5ccccc5)nc4c3)c3c(N)nccn32)C1 [Linsitinib] (partner 1 µM)
Response given: yes

Challenge: I'd appreciate it if you could check whether O=c1cc(N2CCOCC2)oc2c(-c3cccc4c3sc3ccccc34)cccc12 + COc1cc2c(Oc3ccc(NC(=O)C4(C(=O)Nc5ccc(F)cc5)CC4)cc3F)ccnc2cc1OCCCN1CCOCC1 [Foretinib] (partner 0.25 µM) has relative viability smaller than 0.4.
Response given: no

Challenge: Determine whether this compound shows relative viability lower than 0.4 (ties excluded): O=c1cc(N2CCOCC2)oc2c(-c3cccc4c3sc3ccccc34)cccc12 + CS(=O)(=O)N1CCN(Cc2cc3nc(-c4cccc5[nH]ncc45)nc(N4CCOCC4)c3s2)CC1 [Pictilisib] (partner 1 µM)
Response given: yes

Challenge: Would you kindly verify if relative viability of O=c1cc(N2CCOCC2)oc2c(-c3cccc4c3sc3ccccc34)cccc12 + COc1cccc2cc(-c3nc([C@H]4CC[C@H](C(=O)O)CC4)n4ncnc(N)c34)[nH]c12 [OSI-027] (partner 0.5 µM) is strictly less than 0.4?
Response given: no

Challenge: # strict comparison: is reported relative viability < 0.4? input = CCN(CC)CCCCNc1ncc2cc(-c3cc(OC)cc(OC)c3)c(NC(=O)NC(C)(C)C)nc2n1 + CS(=O)(=O)CCNCc1ccc(-c2ccc3ncnc(Nc4ccc(OCc5cccc(F)c5)c(Cl)c4)c3c2)o1 [Lapatinib] (partner 2 µM)
Response given: no

Challenge: Consider the compound CCN(CC)CCCCNc1ncc2cc(-c3cc(OC)cc(OC)c3)c(NC(=O)NC(C)(C)C)nc2n1 + O=C(CCCCCCC(=O)Nc1ccccc1)NO [Vorinostat] (partner 1 µM) . Is its relative viability strictly less than 0.4?
Response given: no

Challenge: State whether 0.4 exceeds relative viability recorded for CCN(CC)CCCCNc1ncc2cc(-c3cc(OC)cc(OC)c3)c(NC(=O)NC(C)(C)C)nc2n1 + COc1cc2c(Oc3ccc(NC(=O)C4(C(=O)Nc5ccc(F)cc5)CC4)cc3F)ccnc2cc1OCCCN1CCOCC1 [Foretinib] (partner 0.25 µM) .
Response given: no

Challenge: Is 0.4 strictly greater than the compound's reported relative viability? compound: CCN(CC)CCCCNc1ncc2cc(-c3cc(OC)cc(OC)c3)c(NC(=O)NC(C)(C)C)nc2n1 + COc1cccc2cc(-c3nc([C@H]4CC[C@H](C(=O)O)CC4)n4ncnc(N)c34)[nH]c12 [OSI-027] (partner 0.5 µM)
Response given: no

Continuing:
Challenge: Hi there! Is relative viability for CCN(CC)CCCCNc1ncc2cc(-c3cc(OC)cc(OC)c3)c(NC(=O)NC(C)(C)C)nc2n1 + Cc1cc(Nc2cc(N3CCN(C)CC3)nc(Sc3ccc(NC(=O)C4CC4)cc3)n2)n[nH]1 [Tozasertib] (partner 0.1 µM) below 0.4, do you know?
Response given: no

Challenge: Bench note: check whether CCN(CC)CCCCNc1ncc2cc(-c3cc(OC)cc(OC)c3)c(NC(=O)NC(C)(C)C)nc2n1 + CS(=O)(=O)N1CCN(Cc2cc3nc(-c4cccc5[nH]ncc45)nc(N4CCOCC4)c3s2)CC1 [Pictilisib] (partner 1 µM) shows relative viability below 0.4
Response given: no

Challenge: Threshold test, relative viability < 0.4: O=c1cc(N2CCOCC2)oc2c(-c3cccc4c3sc3ccccc34)cccc12 + Cc1cc(Nc2cc(N3CCN(C)CC3)nc(Sc3ccc(NC(=O)C4CC4)cc3)n2)n[nH]1 [Tozasertib] (partner 0.1 µM)
Response given: no

Challenge: is_below(relative viability, 0.4) for CCN(CC)CCCCNc1ncc2cc(-c3cc(OC)cc(OC)c3)c(NC(=O)NC(C)(C)C)nc2n1 + Cc1nc(Nc2ncc(C(=O)Nc3c(C)cccc3Cl)s2)cc(N2CCN(CCO)CC2)n1 [Dasatinib] (partner 0.075 µM) ?
Response given: no

Challenge: Problem: For the compound CCN(CC)CCCCNc1ncc2cc(-c3cc(OC)cc(OC)c3)c(NC(=O)NC(C)(C)C)nc2n1 + CCNC(=O)c1noc(-c2cc(C(C)C)c(O)cc2O)c1-c1ccc(CN2CCOCC2)cc1 [Luminespib] (partner 0.01 µM) , is relative viability under 0.4?
Response given: yes

Challenge: Item CCN(CC)CCCCNc1ncc2cc(-c3cc(OC)cc(OC)c3)c(NC(=O)NC(C)(C)C)nc2n1 + O=C(c1cc(Cc2n[nH]c(=O)c3ccccc23)ccc1F)N1CCN(C(=O)C2CC2)CC1 [Olaparib] (partner 8 µM) : relative viability beneath 0.4, strictly?
Response given: no

----------
- System: NCI-H1666
- ASSAY_TEXT: relative viability (nuclei count vs DMSO), 5 days (fraction); higher = more cells survive
- CONDITION_INFO: first compound 0.1 µM
relative viability overview
Answer using only a numeral; do not append any unit.

Illustrative cases are given below, each with its answer.
So for O=c1cc(N2CCOCC2)oc2c(-c3cccc4c3sc3ccccc34)cccc12 + C[C@]1(O)C[C@@H](c2nc(-c3ccc4ccc(-c5ccccc5)nc4c3)c3c(N)nccn32)C1 [Linsitinib] (partner 1 µM) , the logged relative viability turned out to be 0.972

Consider O=c1cc(N2CCOCC2)oc2c(-c3cccc4c3sc3ccccc34)cccc12 + N=C(N)NC(=N)NCCc1ccccc1 [Phenformin] (partner 250 µM) . Its measured relative viability is 0.526

Record O=c1cc(N2CCOCC2)oc2c(-c3cccc4c3sc3ccccc34)cccc12 + Cc1nc(Nc2ncc(C(=O)Nc3c(C)cccc3Cl)s2)cc(N2CCN(CCO)CC2)n1 [Dasatinib] (partner 0.075 µM) , field relative viability: 0.755

Record O=c1cc(N2CCOCC2)oc2c(-c3cccc4c3sc3ccccc34)cccc12 + Cc1cc(Nc2cc(N3CCN(C)CC3)nc(Sc3ccc(NC(=O)C4CC4)cc3)n2)n[nH]1 [Tozasertib] (partner 0.1 µM) . Reported relative viability: 0.579

Others:
Lookup result for O=c1cc(N2CCOCC2)oc2c(-c3cccc4c3sc3ccccc34)cccc12 + Nc1ncn([C@H]2C[C@H](O)[C@@H](CO)O2)c(=O)n1 [Decitabine] (partner 2 µM) ; measured relative viability: 0.713

The value of relative viability measured for the molecule CCN(CC)CCCCNc1ncc2cc(-c3cc(OC)cc(OC)c3)c(NC(=O)NC(C)(C)C)nc2n1 + CC(=O)Nc1cccc(-n2c(=O)n(C3CC3)c(=O)c3c(Nc4ccc(I)cc4F)n(C)c(=O)c(C)c32)c1 [Trametinib] (partner 0.02 µM) turned out to be 0.93

Recorded relative viability (molecule O=c1cc(N2CCOCC2)oc2c(-c3cccc4c3sc3ccccc34)cccc12 + CCNC(=O)c1noc(-c2cc(C(C)C)c(O)cc2O)c1-c1ccc(CN2CCOCC2)cc1 [Luminespib] (partner 0.01 µM) ): 0.995

Short answer for O=c1cc(N2CCOCC2)oc2c(-c3cccc4c3sc3ccccc34)cccc12 + Cc1nc(NC(=O)N2CCC[C@H]2C(N)=O)sc1-c1ccnc(C(C)(C)C(F)(F)F)c1 [Alpelisib] (partner 2 µM) : relative viability was 0.977

----------
- System: SK-MES-1
- ASSAY_TEXT: relative viability (nuclei count vs DMSO), 5 days (fraction); higher = more cells survive
- CONDITION_INFO: first compound 0.01 µM
Entries and their measured relative viability follow.
Just the number, please, no unit after it.

Lab entry: SK-MES-1 assay, molecule CCN(CC)CCCCNc1ncc2cc(-c3cc(OC)cc(OC)c3)c(NC(=O)NC(C)(C)C)nc2n1 + CCNC(=O)c1noc(-c2cc(C(C)C)c(O)cc2O)c1-c1ccc(CN2CCOCC2)cc1 [Luminespib] (partner 0.01 µM) , relative viability = 0.97

Proceed to the following item.
relative viability for SK-MES-1 with input CCN(CC)CCCCNc1ncc2cc(-c3cc(OC)cc(OC)c3)c(NC(=O)NC(C)(C)C)nc2n1 + COc1cc2c(Oc3ccc(NC(=O)C4(C(=O)Nc5ccc(F)cc5)CC4)cc3F)ccnc2cc1OCCCN1CCOCC1 [Foretinib] (partner 0.25 µM) equals 0.973

----------
- Tested on: NCI-H3122
- ASSAY_TEXT: relative viability (nuclei count vs DMSO), 5 days (fraction); higher = more cells survive
- CONDITION_INFO: first compound 0.01 µM
TEST_READOUT: relative viability
# answer = number (no unit)

Record summary for CCN(CC)CCCCNc1ncc2cc(-c3cc(OC)cc(OC)c3)c(NC(=O)NC(C)(C)C)nc2n1 + C[C@]1(O)C[C@@H](c2nc(-c3ccc4ccc(-c5ccccc5)nc4c3)c3c(N)nccn32)C1 [Linsitinib] (partner 1 µM) : reported relative viability = 1.05

relative viability measured on CCN(CC)CCCCNc1ncc2cc(-c3cc(OC)cc(OC)c3)c(NC(=O)NC(C)(C)C)nc2n1 + C[C@@H](Oc1cc(-c2cnn(C3CCNCC3)c2)cnc1N)c1c(Cl)ccc(F)c1Cl [Crizotinib] (partner 1 µM) = 0.273

// field: relative viability; key: CCN(CC)CCCCNc1ncc2cc(-c3cc(OC)cc(OC)c3)c(NC(=O)NC(C)(C)C)nc2n1 + Cc1cc(Nc2cc(N3CCN(C)CC3)nc(Sc3ccc(NC(=O)C4CC4)cc3)n2)n[nH]1 [Tozasertib] (partner 0.1 µM) ; value = 0.559

Please examine the following record next.
// relative viability lookup, molecule = O=c1cc(N2CCOCC2)oc2c(-c3cccc4c3sc3ccccc34)cccc12 + CCNC(=O)c1noc(-c2cc(C(C)C)c(O)cc2O)c1-c1ccc(CN2CCOCC2)cc1 [Luminespib] (partner 0.01 µM) , result: 0.073
